These measurements were taken from patent US7872036B2.

- Tested on: two-spotted spider mites
- assay_explanation: Miticidal test on two-spotted spider mites (by dipping)
- Type: in vivo, Tetranychus urticae
- Set-up: scale not given here
- conditions_used: dipping of soybean seedlings, active ingredient 500 ppm, 25° C., 13 days
Each entry below lists one item and its recorded Miticidal value value.
assay_metric: Miticidal value

molecule=Cc1cc(F)c(-n2nc(C#N)nc2N)cc1SCC(F)(F)F assay_metric="Miticidal value" value=100
molecule=Cc1cc(F)c(-n2nc(C(C)(C)C)nc2N)cc1SCC(F)(F)F assay_metric="Miticidal value" value=100
molecule="CNc1nc(C(F)(F)F)nn1-c1ccc(C)c([S+]([O-])CC(F)(F)F)c1 (stereo not shown)" assay_metric="Miticidal value" value=100
molecule="Cc1cc(F)c(-n2nc([S+]([O-])C(F)F)nc2N)cc1[S+]([O-])CC(F)(F)F (stereo not shown)" assay_metric="Miticidal value" value=100
molecule="Cc1cc(F)c(-n2nc(C(C)(C)C)nc2N)cc1[S+]([O-])CC(F)(F)F (stereo not shown)" assay_metric="Miticidal value" value=100
molecule="CNc1nc(SC(F)(F)C(F)(F)F)nn1-c1cc([S+]([O-])CC(F)(F)F)c(C)cc1F (stereo not shown)" assay_metric="Miticidal value" value=100
molecule="C#CCNc1nc(SCC(F)(F)F)nn1-c1cc([S+]([O-])CC(F)(F)F)c(C)cc1F (racemic)" assay_metric="Miticidal value" value=100
molecule="Nc1nc(C(F)(F)F)nn1-c1ccc(C(F)F)c([S+]([O-])CC(F)(F)F)c1 (stereo not shown)" assay_metric="Miticidal value" value=100
molecule="Cc1cc(F)c(-n2nc(C(F)(F)F)nc2N(C)C(=O)C(F)(F)F)cc1[S+]([O-])CC(F)(F)F (racemic)" assay_metric="Miticidal value" value=100
molecule="Cc1ccc(-n2nc(C(F)(F)F)nc2N)cc1[S+]([O-])CC(F)(F)F (stereo not shown)" assay_metric="Miticidal value" value=100
molecule="Cc1cc(F)c(-n2nc(C(C(F)(F)F)C(F)(F)F)nc2N)cc1[S+]([O-])CC(F)(F)F (racemic)" assay_metric="Miticidal value" value=100
molecule="CNc1nc(C(C)(C)C)nn1-c1cc([S+]([O-])CC(F)(F)F)c(C)cc1F (stereo not shown)" assay_metric="Miticidal value" value=100
molecule="CNc1nc(SCC(F)(F)F)nn1-c1cc([S+]([O-])CC(F)(F)F)c(C)cc1F (stereo not shown)" assay_metric="Miticidal value" value=100
molecule="Cc1cc(F)c(-n2nc(C(F)(F)F)nc2N(C)N)cc1[S+]([O-])CC(F)(F)F (stereo not shown)" assay_metric="Miticidal value" value=100
molecule="Cc1cc(F)c(-n2nc(C(F)(F)F)nc2NC(=O)N(C)C)cc1[S+]([O-])CC(F)(F)F (stereo not shown)" assay_metric="Miticidal value" value=100
molecule="C#CCNc1nc(SC(F)(F)C(F)(F)F)nn1-c1cc([S+]([O-])CC(F)(F)F)c(C)cc1F (racemic)" assay_metric="Miticidal value" value=100
molecule="Cc1cc(F)c(-n2nc(C(C)C)nc2N)cc1[S+]([O-])CC(F)(F)F (stereo not shown)" assay_metric="Miticidal value" value=100
molecule="Cc1cc(F)c(-n2nc(SC(F)(F)F)nc2N)cc1[S+]([O-])CC(F)(F)F (stereo not shown)" assay_metric="Miticidal value" value=100
molecule="CNC(=O)Nc1nc(C(F)(F)F)nn1-c1cc([S+]([O-])CC(F)(F)F)c(C)cc1F (stereo not shown)" assay_metric="Miticidal value" value=100
molecule="CCC(=O)Nc1nc(C(F)(F)F)nn1-c1cc([S+]([O-])CC(F)(F)F)c(C)cc1F (racemic)" assay_metric="Miticidal value" value=100
molecule="CC(=O)Nc1nc(C(C)(C)C)nn1-c1cc([S+]([O-])CC(F)(F)F)c(C)cc1F (stereo not shown)" assay_metric="Miticidal value" value=100
molecule=Cc1cc(F)c(-n2nc(C(F)(F)F)nc2N(C)C)cc1SCC(F)(F)F assay_metric="Miticidal value" value=100
molecule="[O-][S+](CC(F)(F)F)c1cc(-n2cnc(C(F)(F)F)n2)ccc1CF (stereo not shown) [b, reference compound]" assay_metric="Miticidal value" value=99
molecule="Cc1cc(F)c(-n2nc(SCC(F)(F)F)nc2N)cc1[S+]([O-])CC(F)(F)F (stereo not shown)" assay_metric="Miticidal value" value=100
molecule="CCNc1nc(C(F)(F)F)nn1-c1cc([S+]([O-])CC(F)(F)F)c(C)cc1F (stereo not shown)" assay_metric="Miticidal value" value=100
molecule="Cc1cc(F)c(-n2nc(C(C)(C)C#N)nc2N)cc1[S+]([O-])CC(F)(F)F (stereo not shown)" assay_metric="Miticidal value" value=100
molecule="C#CCNc1nc(C(F)(F)F)nn1-c1cc([S+]([O-])CC(F)(F)F)c(C)cc1F (stereo not shown)" assay_metric="Miticidal value" value=100
molecule="Cc1cc(F)c(-n2nc(C(F)(F)F)nc2NC(=O)NC(C)C)cc1[S+]([O-])CC(F)(F)F (racemic)" assay_metric="Miticidal value" value=100
molecule="Cc1cc(F)c(-n2nc(SC(F)(F)C(F)(F)F)nc2N)cc1[S+]([O-])CC(F)(F)F (racemic)" assay_metric="Miticidal value" value=100
molecule="Cc1cc(F)c(-n2nc(C#N)nc2N)cc1[S+]([O-])CC(F)(F)F (stereo not shown)" assay_metric="Miticidal value" value=100
molecule="Cc1cc(F)c(-n2nc([S+]([O-])CC(F)(F)F)nc2N)cc1[S+]([O-])CC(F)(F)F (stereo not shown)" assay_metric="Miticidal value" value=100
